Cited source for all entries: the supplement of paper PMC9170038

- System: MS2 coat protein
- ASSAY NOTES: apparent KD of MS2 coat protein; higher = weaker reporter binding
- REPORTED CONDITIONS: Eterna round: R107; input ligand: theophylline 2 mM
The entries below come with measured apparent KD of MS2 coat protein values attached.
Could you give me the number in nM? Just the number is fine.

// worked examples, apparent KD of MS2 coat protein included
CHAIN SEQUENCE	ENDPOINT NAME	UNIT ANNOTATION	DATA VALUE
CUAUAGAUAAGAAGGAGCGUCGAAAAUGGGUAAACAUGAGGAUCACCCAUGUAAAGGGAACGACAGGUAGGUCGCUUAUUUAUAG [AstromonsSSArgB#6]	apparent KD of MS2 coat protein	nM	226
CAGAACAUGAGGAUCACCCAUGUAAACGACCGAGGACCGGUACGGCCGCCACUCGAUAUGUCUUGAGGGAGAUAUGGAUUCACAU [theeternabot_sameState_MS2_Trp_A_46]	apparent KD of MS2 coat protein	nM	44.4

The record that follows has no apparent KD of MS2 coat protein shown yet.
Record request: apparent KD of MS2 coat protein value, item CGCCACUCGAGUGAUCCUCACGAGUGGCUACGAGGACCGGUACGGCCGCCACUCGAAUUAACAUGAGGAUCACCCAUGUACUCCA [Brourdmod10]
193

###

- Test system: MS2 coat protein
- ASSAY NOTES: apparent KD of MS2 coat protein; designed switch direction (-1 OFF switch, 1 ON switch): -1; higher = weaker reporter binding
- REPORTED CONDITIONS: input ligand: FMN 200 uM
The entries below come with measured apparent KD of MS2 coat protein values attached.
Could you give me the number in nM? Just the number is fine.

CHAIN SEQUENCE	ENDPOINT NAME	DATA VALUE
CCAAGCAAAAUCAUUAACAACAUGAGGAUCACCCAUGUGUAAGCAAUUAUGUUUGGGCUCUUUAGAGCUCGUCUUAU [JR_STOV1_Sub044] (Eterna round: R97, puzzle: Sensor, turn-off variant 1)	apparent KD of MS2 coat protein	13.5

The record that follows has no apparent KD of MS2 coat protein shown yet.
Record request: apparent KD of MS2 coat protein value, item GGUCCGUGUGUGAGGAUAUGCUGGUCCUUGGAUCAGCAGAAGGCACAUGAGGAUCACCCAUGUGGUGUCGGACC [Mat - Exclusion 4 - Eli Mod - D33] (Eterna round: R97, puzzle: Brourd's mod of Exclusion 4)
24.6

###

- Tested on: K4 kissing-loop RNA reporter;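 note: bound reporter read as fluorescence of individual clusters on recovered sequencing chips by microscopy, with normalized cluster intensities fitted with a binding model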
- ASSAY NOTES: apparent KD of K4 kissing-loop reporter; higher = weaker reporter binding
- REPORTED CONDITIONS: Eterna round: R107; input ligand: none
Quick rule for you: apparent KD of K4 kissing-loop reporter at 400 nM or higher means true (1), lower means false (0).

Answered cases to consult:
CHAIN SEQUENCE	ASSIGNED LABEL
UGUACCGAGGCAGGAUAUGUCGUCGAAAGACGAAAUGGAGUGAUGUUCCUUAAACUGCGAAAGCAGACAGAAGGGUCUUGGUACU [FmnBS 29 G10+U76]	false (0)
GGCAUGCGUAGAGUGAUGUUCUAAGAUGAUACCAGUGCGGAAACGCACCCUUGGCAGCAUCUGACUGGCAUGCCGGCGAAAGCCU	true (1)
AGGUCACGAGGAAGGAGCGCCCUGACAGGUUGCUGCCGUGGGCAGUGAUGUUGCUCAGUCCGGCAGGUAGGUCGCCUCGUGACCU	false (0)

Given UGUCAUUGGUCUGAUACCAGUUGAUGACGAAUACGUCAACUGGAGUGAUGUUCCUAAAACAACCCUUGGCAGCAGACCGAUGACU [TheoBS 1 #SwitchBubble #StaticStem] , state whether its apparent KD of K4 kissing-loop reporter is at least 400 nM.
true (1)

Given UUACGGUCCUCGGCCGCCACUCAUAGUGAUGUUAUGCUGCCUGAAGGCACCGGACCUGGAUAUCAGAGGACCGGGAGGCCAUUCG [theeternabot_exclusion_KL_Trp_B_6] , state whether its apparent KD of K4 kissing-loop reporter is at least 400 nM.
true (1)

Given AGUAGGAAACUACAAUCCUCUCUUACUGAAGGAGCGCGUGAAAACGCAGGUAGGUCGCAGGAUUUGAGAGUGAUGUUCUCAUUAA [Ex Arginine A K4 16] , state whether its apparent KD of K4 kissing-loop reporter is at least 400 nM.
false (0)

Given GGAUUGCCAGUGAUGUUGGCAUAAACUGAAGGAGCGCGUGAAAACGCAGGUAGGUCGCAGAACCUUGCCAACUAUAUUAUUUACC [Ex Arginine A K4 22] , state whether its apparent KD of K4 kissing-loop reporter is at least 400 nM.
false (0)

Given AGAUGUCCCUGGGAUACCAGUCGGAGUCUCAGAGCUCGGAGUGAUGUUCUGGGAUGUUUCGGCCCUUGGCAGCUCUGGGACUCCC [#2 Exclusion - Theophylline B Attempt #25 (HarryS)] , state whether its apparent KD of K4 kissing-loop reporter is at least 400 nM.
true (1)

Given `AAGCAGUCACGCGAAGCCAUCGAAGAUGGCCGAGGACCGGUACGGCCGCCACUCGGAGUGAUGUUCCGAAGACUGCAAAAUAAAA` , state whether its apparent KD of K4 kissing-loop reporter is at least 400 nM.
true (1)
